Tested on: c-Src
test: phosphorylation enrichment, bacterial display (enrichment ratio); higher = better substrate or ligand; peptides without Tyr show the background
Label rule, in plain words: phosphorylation enrichment of 0.5 and up is Y, under 0.5 is N.

Reference set (5 entries):
[[record]]
seq_text = "SVTGTYSPALN [TP53_Y126_C124G]"
assigned_category = "Y"

[[record]]
seq_text = "HQNGTYGLHQD [SGSH_Y89_M88T]"
assigned_category = "Y"

[[record]]
seq_text = "SGPRRYTVAAL [TTR_Y125_I127V]"
assigned_category = "N"

[[record]]
seq_text = "NPQKSYFICLY [WAS_Y83_R86C]"
assigned_category = "N"

[[record]]
seq_text = "RDLTHYLMKIL [ACTG1_Y188_D187H]"
assigned_category = "N"


Req: Decide: phosphorylation enrichment of GASWRYRSGVS [NEU1_Y242_G243R] >= 0.5?
Resp: N

Req: # check: phosphorylation enrichment of IRTDAYVQAMT [RPE65_Y89_R91Q] is greater than or equal to 0.5
Resp: N

Req: Would you say KVALLYKPFFF [POLE_Y100_P99L_YF] shows phosphorylation enrichment at minimum 0.5?
Resp: Y

* * *

study_system: SHP2-C SH2
test: SH2 binding enrichment of the phosphorylated peptide, bacterial display (enrichment ratio); higher = better substrate or ligand; peptides without Tyr show the background
Note to self: values exactly at 0.7 are 1. So SH2 binding enrichment at or above 0.7 is 1, below is 0.

Example entries and their recorded answers appear below.
[[record]]
seq_text = "YADPYYDYEIE [ZC3H18_Y372]"
assigned_category = 0

[[record]]
seq_text = "TTGGFYSYGGG [KRT24_Y120_A115T]"
assigned_category = 1

[[record]]
seq_text = "DSGKLYALDGL [INO80_Y1104_V1108G]"
assigned_category = 0


Req: Item KRLFAYKMLMA [TMC2_Y209_Q205R_YF] with SH2 binding enrichment of 0.7 or above?
Resp: 1

Req: Quick check: does DPADRYLTEQF [CDKL5_Y286_C291Y_YF] have SH2 binding enrichment greater than or equal to 0.7?
Resp: 0

Req: For this sequence, is measured SH2 binding enrichment 0.7 or higher? GESVSYLFSHV [PRPS1_Y311]
Resp: 1

Req: Tell me whether SH2 binding enrichment is at least 0.7 here: RHRSGYVLIAM [EFR3A_Y73]
Resp: 1

* * *

Test system: c-Abl (mouse)
test: phosphorylation enrichment, bacterial display (enrichment ratio); higher = better substrate or ligand; peptides without Tyr show the background
metric: phosphorylation enrichment
Enter a number only.

Consider the worked cases shown below.
[[record]]
seq_text = "ADNQRYAFMPL [TMEM87B_Y460_N456D]"
study_system = "c-Abl (mouse)"
metric = "phosphorylation enrichment"
test_value = 0.781

[[record]]
seq_text = "SRWKLYPRMLR [HAO1_Y50]"
study_system = "c-Abl (mouse)"
metric = "phosphorylation enrichment"
test_value = 0.524

[[record]]
seq_text = "VMIYAYLLHRG [PTEN_Y138_C136Y]"
study_system = "c-Abl (mouse)"
metric = "phosphorylation enrichment"
test_value = 0.748

[[record]]
seq_text = "VRRVGYVSGWG [HP_Y280_G276R]"
study_system = "c-Abl (mouse)"
metric = "phosphorylation enrichment"
test_value = 0.642

[[record]]
seq_text = "KYVKMCDNHQL [MYO9A_Y203_Y203C]"
study_system = "c-Abl (mouse)"
metric = "phosphorylation enrichment"
test_value = 0.512


Measured phosphorylation enrichment, YDKEYYSVHNK [MET_Y1235] : 0.684

Notebook: YDGKDYIALKE [HLA-A_Y147_N151K] , phosphorylation enrichment read as 0.72

Briefly, phosphorylation enrichment measured for HKETGYVVERP [BCLAF1_Y466_L461H] : 1.28

Summary for this sequence, QTWKTYVRQQQ [SFI1_Y164] : phosphorylation enrichment is 0.673

* * *

study_system: MERTK (UniProt Q12866)
Sequence (Q12866 whole entry, looked up): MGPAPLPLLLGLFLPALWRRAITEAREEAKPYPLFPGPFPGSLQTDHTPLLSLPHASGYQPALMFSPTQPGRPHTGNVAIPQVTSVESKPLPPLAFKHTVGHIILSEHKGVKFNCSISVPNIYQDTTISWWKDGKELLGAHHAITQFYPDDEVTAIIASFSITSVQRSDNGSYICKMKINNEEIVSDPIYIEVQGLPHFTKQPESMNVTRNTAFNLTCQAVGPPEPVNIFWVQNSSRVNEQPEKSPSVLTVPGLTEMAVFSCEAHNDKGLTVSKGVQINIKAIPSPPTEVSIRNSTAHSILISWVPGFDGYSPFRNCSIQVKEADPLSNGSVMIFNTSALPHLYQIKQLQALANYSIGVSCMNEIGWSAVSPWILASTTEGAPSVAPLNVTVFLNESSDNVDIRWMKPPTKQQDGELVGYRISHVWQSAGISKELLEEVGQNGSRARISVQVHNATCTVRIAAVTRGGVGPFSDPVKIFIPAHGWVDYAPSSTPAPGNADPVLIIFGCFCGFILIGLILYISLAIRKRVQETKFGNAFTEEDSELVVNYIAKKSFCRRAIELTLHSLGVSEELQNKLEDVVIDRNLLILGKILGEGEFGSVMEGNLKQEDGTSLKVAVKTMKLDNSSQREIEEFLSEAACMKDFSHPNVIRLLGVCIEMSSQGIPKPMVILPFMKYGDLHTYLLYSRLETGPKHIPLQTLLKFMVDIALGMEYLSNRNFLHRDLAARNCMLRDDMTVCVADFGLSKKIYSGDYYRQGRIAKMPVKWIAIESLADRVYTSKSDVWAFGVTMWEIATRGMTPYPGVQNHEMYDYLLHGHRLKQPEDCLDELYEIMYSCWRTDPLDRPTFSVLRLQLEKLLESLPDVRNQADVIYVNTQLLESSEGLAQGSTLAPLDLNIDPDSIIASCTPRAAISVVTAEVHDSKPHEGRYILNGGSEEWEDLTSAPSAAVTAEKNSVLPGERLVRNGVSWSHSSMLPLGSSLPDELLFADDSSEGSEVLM
test: phosphorylation enrichment, bacterial display (enrichment ratio); higher = better substrate or ligand; peptides without Tyr show the background
metric: phosphorylation enrichment
Output: the number by itself.

Worked set:
[[record]]
seq_text = "LFLACYFIGGG [UBD_Y161_C162F]"
test_value = 0.45

[[record]]
seq_text = "KNKLNYTLPQD [NRAP_Y523]"
test_value = 0.347

[[record]]
seq_text = "WCSNDYLGMSQ [ALAS2_Y199_R204Q]"
test_value = 0.478


Just so you know, measured phosphorylation enrichment for NTTIHYNYMCN [TP53_Y234_C229N] came out at 0.574

# phosphorylation enrichment of KSDVVYTDWKK [ORM1_Y175] = 0.559

* * *

study_system: EPHB2 (UniProt P29323)
Sequence (P29323 whole entry, looked up): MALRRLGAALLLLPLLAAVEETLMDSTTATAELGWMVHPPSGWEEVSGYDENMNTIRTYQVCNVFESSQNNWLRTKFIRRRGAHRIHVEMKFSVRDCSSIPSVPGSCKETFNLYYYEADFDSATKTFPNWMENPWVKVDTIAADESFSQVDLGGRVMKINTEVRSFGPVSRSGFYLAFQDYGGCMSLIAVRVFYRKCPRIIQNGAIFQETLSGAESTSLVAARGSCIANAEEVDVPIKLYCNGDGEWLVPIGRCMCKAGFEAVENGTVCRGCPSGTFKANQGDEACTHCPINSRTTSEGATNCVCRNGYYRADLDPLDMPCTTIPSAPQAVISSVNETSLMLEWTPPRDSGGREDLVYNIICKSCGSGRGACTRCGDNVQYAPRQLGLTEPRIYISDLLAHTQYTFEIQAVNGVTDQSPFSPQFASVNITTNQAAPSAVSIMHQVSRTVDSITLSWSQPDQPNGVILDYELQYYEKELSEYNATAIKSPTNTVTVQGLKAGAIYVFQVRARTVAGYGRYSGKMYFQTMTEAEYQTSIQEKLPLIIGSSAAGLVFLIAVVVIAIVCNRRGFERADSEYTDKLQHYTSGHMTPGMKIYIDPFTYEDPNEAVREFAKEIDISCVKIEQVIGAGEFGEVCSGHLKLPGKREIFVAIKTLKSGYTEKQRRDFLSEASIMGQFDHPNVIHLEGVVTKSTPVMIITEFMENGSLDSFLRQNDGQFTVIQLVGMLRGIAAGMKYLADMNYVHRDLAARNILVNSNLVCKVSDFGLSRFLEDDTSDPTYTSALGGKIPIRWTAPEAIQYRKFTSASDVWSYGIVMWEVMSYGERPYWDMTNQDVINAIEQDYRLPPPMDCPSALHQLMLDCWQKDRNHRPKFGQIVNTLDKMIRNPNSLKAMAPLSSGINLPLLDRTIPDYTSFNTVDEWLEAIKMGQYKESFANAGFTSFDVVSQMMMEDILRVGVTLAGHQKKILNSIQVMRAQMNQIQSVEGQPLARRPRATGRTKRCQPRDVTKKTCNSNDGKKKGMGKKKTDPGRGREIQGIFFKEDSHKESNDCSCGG
test: phosphorylation enrichment, bacterial display (enrichment ratio); higher = better substrate or ligand; peptides without Tyr show the background
metric: phosphorylation enrichment
Just the number, please, no unit after it.

[[record]]
seq_text = "REIIAYQPFGK [PRKCG_Y529_P524R_YF]"
metric = "phosphorylation enrichment"
test_value = 0.385


phosphorylation enrichment in this record for GQRDLYSGLNQ [CD3E_Y199] : 2.35

The sequence listed as DTKAFYPEEIS [HSPA1A_Y115_E110D] shows phosphorylation enrichment equal to 0.579

Quick note, phosphorylation enrichment for TKGNEYVFRVA landed at 0.565

Form: sequence = YGCGMYSHLQG [LGR4_Y848_D844G] ; phosphorylation enrichment = 1.07

Sure, the documented phosphorylation enrichment for YRIGPYQPNVP [MATR3_Y784] is 0.504

Note to self: phosphorylation enrichment recorded for EKLQKYFRKNP [EHHADH_Y682_Q685K_YF] was 0.615

Per the records, this sequence ( NREGVYTDFAP [TGFBI_Y537_V539D] ) has phosphorylation enrichment equal to 0.624

* * *

Test system: c-Src
test: phosphorylation enrichment, bacterial display (enrichment ratio); higher = better substrate or ligand; peptides without Tyr show the background
metric: phosphorylation enrichment
Lab note: jot the number down without any unit.

Reported phosphorylation enrichment ( GPCKAYELSQR [SETX_Y1297_R1294C] ) = 0.546

# sequence PEPHIYAVADV [MYO9A_Y216_L211P] ; its phosphorylation enrichment = 3.72

Record PSDSGYSFETI [MAP1B_Y1921_YF] . Reported phosphorylation enrichment: 0.405

* * *

Test system: c-Abl (mouse)
test: phosphorylation enrichment, bacterial display (enrichment ratio); higher = better substrate or ligand; peptides without Tyr show the background
metric: phosphorylation enrichment
Number only, please.

Answered examples (4):
[[record]]
seq_text = "NSFKFYMSDDI [ATRX_Y204_C200S_YF]"
test_value = 0.657

[[record]]
seq_text = "SKLTIYDGRPS [MTM1_Y277_A279G]"
test_value = 0.508

[[record]]
seq_text = "YKGKKYKPLDL [RPL35_Y78]"
test_value = 0.508

[[record]]
seq_text = "GSTLSYFGLAT [P2RX7_Y343_A348T]"
test_value = 0.998


Query sequence follows.
In plain terms, SQINLYQDVML [ZNF806_Y33_A28S] has a documented phosphorylation enrichment of 0.752

* * *

study_system: c-Src SH2
test: SH2 binding enrichment of the phosphorylated peptide, bacterial display (enrichment ratio); higher = better substrate or ligand; peptides without Tyr show the background
metric: SH2 binding enrichment

Worked examples follow.
[[record]]
seq_text = "FDDIAHIRKTL [PIK3CA_Y1021_Y1021H]"
study_system = "c-Src SH2"
metric = "SH2 binding enrichment"
test_value = 0.435

[[record]]
seq_text = "SIKGKYVTALF [KCNH2_Y611_D609G_YF]"
study_system = "c-Src SH2"
metric = "SH2 binding enrichment"
test_value = 0.735

[[record]]
seq_text = "GSCQEYTGAPF [NAXD_Y85_G81S_YF]"
study_system = "c-Src SH2"
metric = "SH2 binding enrichment"
test_value = 0.596

[[record]]
seq_text = "EITSHYRHLLR [ZBTB46_Y14]"
study_system = "c-Src SH2"
metric = "SH2 binding enrichment"
test_value = 0.491

[[record]]
seq_text = "DSNPIYSQIWS [FCRL3_Y662]"
study_system = "c-Src SH2"
metric = "SH2 binding enrichment"
test_value = 0.851


Sample QEGPEYWDGET [HLA-A_Y83_Q86G] , system: c-Src SH2. Its SH2 binding enrichment is 0.476

* * *

study_system: Jak2 (UniProt O60674)
Sequence (O60674 whole entry, looked up): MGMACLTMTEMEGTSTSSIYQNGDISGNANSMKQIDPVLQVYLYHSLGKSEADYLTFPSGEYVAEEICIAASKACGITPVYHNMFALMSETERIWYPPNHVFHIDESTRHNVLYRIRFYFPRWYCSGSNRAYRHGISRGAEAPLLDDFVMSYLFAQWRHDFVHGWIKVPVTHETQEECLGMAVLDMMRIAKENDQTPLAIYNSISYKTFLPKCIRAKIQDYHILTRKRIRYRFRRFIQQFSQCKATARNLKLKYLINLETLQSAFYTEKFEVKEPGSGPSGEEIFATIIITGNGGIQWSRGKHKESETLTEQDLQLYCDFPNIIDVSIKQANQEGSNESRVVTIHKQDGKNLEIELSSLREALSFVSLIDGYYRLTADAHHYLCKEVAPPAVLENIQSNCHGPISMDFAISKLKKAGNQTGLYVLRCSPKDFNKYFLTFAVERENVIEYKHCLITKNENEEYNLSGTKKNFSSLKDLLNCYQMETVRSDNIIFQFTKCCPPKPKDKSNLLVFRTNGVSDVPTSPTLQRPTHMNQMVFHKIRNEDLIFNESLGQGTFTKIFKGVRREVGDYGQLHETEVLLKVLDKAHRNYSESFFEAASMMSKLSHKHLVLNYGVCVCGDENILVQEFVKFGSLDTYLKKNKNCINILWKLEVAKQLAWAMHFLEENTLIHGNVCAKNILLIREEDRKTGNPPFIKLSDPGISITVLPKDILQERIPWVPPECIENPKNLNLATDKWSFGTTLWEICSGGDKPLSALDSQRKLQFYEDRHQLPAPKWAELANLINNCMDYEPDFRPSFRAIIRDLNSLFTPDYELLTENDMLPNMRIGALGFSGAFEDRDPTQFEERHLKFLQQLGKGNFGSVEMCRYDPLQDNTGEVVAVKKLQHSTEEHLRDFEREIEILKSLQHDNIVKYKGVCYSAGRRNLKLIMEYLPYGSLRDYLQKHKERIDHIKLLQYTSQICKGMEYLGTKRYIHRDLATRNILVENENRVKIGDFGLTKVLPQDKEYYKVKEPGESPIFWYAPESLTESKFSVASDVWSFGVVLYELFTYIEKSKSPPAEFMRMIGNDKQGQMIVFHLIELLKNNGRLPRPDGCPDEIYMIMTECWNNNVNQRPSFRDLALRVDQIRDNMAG
test: phosphorylation enrichment, bacterial display (enrichment ratio); higher = better substrate or ligand; peptides without Tyr show the background
Decide using phosphorylation enrichment: a value greater than or equal to 0.9 is YES, a smaller one is NO.

Below are worked cases with known answers.
[[record]]
seq_text = "RRERDYTNLPS [CSF1R_Y923]"
assigned_category = "NO"

[[record]]
seq_text = "VEQIHYIGQNE [HMOX2_Y140_R137Q]"
assigned_category = "NO"


Req: // inclusive: phosphorylation enrichment at least 0.9? input: FLKDVYVDSKD [NDUFAF4_Y69]
Resp: NO

Req: API: above_or_equal(metric=phosphorylation enrichment, cutoff=0.9) for item MARDIYRASYY [ALK_Y1278]
Resp: NO

Req: Would you say KVMANYMYKAG [MAML2_Y513] shows phosphorylation enrichment at minimum 0.9?
Resp: NO

Req: Determine whether this sequence has phosphorylation enrichment no lower than 0.9: SQINLYQDVML [ZNF806_Y33_A28S]
Resp: NO

Req: Textbook exercise: given the entry PMDTYYDSTRG [DYNC2H1_Y2231] , state whether its phosphorylation enrichment is greater than or equal to 0.9.
Resp: YES

Req: Would you say NFATLYLKIYH [PDE6B_Y219] shows phosphorylation enrichment at minimum 0.9?
Resp: YES

Req: Given the entry GYAGKYIAMVM [CYP19A1_Y441_C437Y] , answer whether its phosphorylation enrichment meets or surpasses 0.9.
Resp: NO
